- Test: Drug level in mouse blood at 300 nmol/kg/day dosed as continuous administration for 3 days
- Assay type: ADME, organism-based
- Condition Context: whole blood, read-out: Drug uptake
Endpoint: concentration at 72 h (nM)
One number for each entry, in nM.

Prompt: Form field: reported concentration at 72 h of `CC[C@H](C)[C@H](NC(=O)[C@H](CCCNC(=N)NC)NC(=O)[C@H](CC(=O)O)NC(=O)[C@@H](NC(=O)[C@@H]1C[C@@H](O)CN1C(=O)CNC(=O)[C@@H](CO)NC(=O)[C@H](CC1CCCCC1)NC(=O)[C@H]1C[C@H](O)CN1C(=O)[C@H](CO)NC(=O)[C@@H](Cc1ccccc1)NC(=O)CO)[C@@H](C)CC)C(=O)NC`
Response: 10.1
